This collection of values is drawn from ChEMBL document CHEMBL2380256.

tested.on: Tyrosine-protein kinase JAK2 (Homo sapiens)
test: Inhibition of JAK2 TEL domain (unknown origin) transfected in mouse Ba/F3 cells
Format: cell-based
test.conditions: baf3
Sequence (O60674 whole entry, looked up, the tested form may be a part): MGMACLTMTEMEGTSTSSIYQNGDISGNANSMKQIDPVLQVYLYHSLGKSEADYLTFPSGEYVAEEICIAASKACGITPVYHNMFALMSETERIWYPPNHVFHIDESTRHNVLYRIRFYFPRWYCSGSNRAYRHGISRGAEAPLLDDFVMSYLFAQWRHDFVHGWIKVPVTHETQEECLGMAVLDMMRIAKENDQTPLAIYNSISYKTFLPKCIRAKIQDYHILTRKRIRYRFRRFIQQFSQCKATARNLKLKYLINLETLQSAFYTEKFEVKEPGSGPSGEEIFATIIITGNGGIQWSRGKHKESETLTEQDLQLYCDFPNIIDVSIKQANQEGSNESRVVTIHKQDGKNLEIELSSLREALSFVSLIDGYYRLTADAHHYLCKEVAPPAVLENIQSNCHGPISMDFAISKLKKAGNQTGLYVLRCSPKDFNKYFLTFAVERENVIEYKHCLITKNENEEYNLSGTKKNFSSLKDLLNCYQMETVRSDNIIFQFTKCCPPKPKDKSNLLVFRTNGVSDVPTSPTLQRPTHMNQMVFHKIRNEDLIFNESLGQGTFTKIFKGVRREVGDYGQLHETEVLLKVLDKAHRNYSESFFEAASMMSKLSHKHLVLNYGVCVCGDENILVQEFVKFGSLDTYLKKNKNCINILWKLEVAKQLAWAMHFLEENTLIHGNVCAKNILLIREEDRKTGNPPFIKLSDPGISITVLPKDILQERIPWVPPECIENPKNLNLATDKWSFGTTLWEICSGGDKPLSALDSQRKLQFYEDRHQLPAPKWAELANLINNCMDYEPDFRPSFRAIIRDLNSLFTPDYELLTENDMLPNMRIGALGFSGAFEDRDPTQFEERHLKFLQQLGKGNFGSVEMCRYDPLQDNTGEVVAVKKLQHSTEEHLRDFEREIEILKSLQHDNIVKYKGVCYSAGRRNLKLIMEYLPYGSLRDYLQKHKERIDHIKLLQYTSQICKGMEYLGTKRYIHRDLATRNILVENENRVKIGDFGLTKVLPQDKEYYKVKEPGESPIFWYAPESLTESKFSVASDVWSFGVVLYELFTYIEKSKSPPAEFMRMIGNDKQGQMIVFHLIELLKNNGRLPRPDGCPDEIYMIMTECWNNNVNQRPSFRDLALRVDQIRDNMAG
reported.property: IC50 (nM)

In [3]: df
Out[3]:
                           structure_string                                 tested_on  reported_property  experimental_result
0  Cc1cc(Nc2nc(N[C@@H](C)c3ncc(F)cc3F)c(F)c(N3CCOCC3)n2)n[nH]1  Tyrosine-protein kinase JAK2 (Homo sapiens)               IC50                    7

---

test: AUC in beagle dog at 5 mg/kg, po and […] mg/kg, iv
Type: ADME, organism-based, Canis lupus familiaris
test.conditions: plasma
reported.property: AUC (µM·h)

>>> print(df.to_string())
                           structure_string  unit_descriptor  experimental_result
0  Cc1cc(Nc2nc(O[C@@H](C)c3ncc(F)cn3)c(F)c(N3CCOCC3)n2)n[nH]1             µM·h                  8.5

---

tested.on: Tyrosine-protein kinase JAK2 (Homo sapiens, UniProt O60674)
pKi: −log10 of the molar value.
reported.property: pKi

                           structure_string                                 tested_on  reported_property  experimental_result
0  Cc1cc(Nc2nc(N[C@@H](C)c3ncc(F)cc3F)c(F)c(N3CCOCC3)n2)n[nH]1  Tyrosine-protein kinase JAK2 (Homo sapiens, UniProt O60674)                pKi                 8.85

---

test: Volume of distribution at steady state in CD1 mouse at 10 mg/kg, po and 3 mg/kg, iv
Assay type: ADME, organism-based
test.conditions: in vivo, read-out: Vdss
reported.property: Vd

In [3]: df
Out[3]:
                           structure_string  experimental_result
0  Cc1cc(Nc2nc(N[C@@H](C)c3ncc(F)cc3F)c(F)c(N3CCOCC3)n2)n[nH]1             2.9 L/kg
1  Cc1cc(Nc2nc(O[C@@H](C)c3ncc(F)cn3)c(F)c(N3CCOCC3)n2)n[nH]1             1.4 L/kg

---

Consider the following compounds and their measured bioavailability readings.
test: Oral bioavailability in CD1 mouse at 10 mg/kg
Assay type: ADME, organism-based
test.conditions: in vivo
reported.property: bioavailability (%)

In [3]: df
Out[3]:
                           structure_string  experimental_result
0  Cc1cc(Nc2nc(O[C@@H](C)c3ncc(F)cn3)c(F)c(N3CCOCC3)n2)n[nH]1                   64
1  Cc1cc(Nc2nc(N[C@@H](C)c3ncc(F)cc3F)c(F)c(N3CCOCC3)n2)n[nH]1                   64

---

test: Intrinsic clearance in rat liver microsomes
Type: ADME, Microsome
test.conditions: read-out: CLH
reported.property: microsomal CLint (µL/min/mg)

In [3]: df
Out[3]:
                           structure_string  reported_property  experimental_result
0  Cc1cnc(Nc2nc(N[C@@H](C)c3ncc(F)cn3)c(F)c(N3CCOCC3)n2)s1   microsomal CLint                   82
